# Tested on: neuronal uptake of 5-hydroxytryptamine
# Test method notes: Inhibition of uptake of 14C-5-HT in vitro in slices of mouse midbrain
# Type: cell-based
# Applied conditions: Mus musculus, mouse midbrain slices, 5 min preincubation, 5 min incubation
Counter-ions that a name gives are not always drawn.
Experimental endpoint: EC50 (nM)

[[record]]
compound = "CNCC=C(c1ccc(Br)cc1)c1cccnc1 [H mixture oxalate]"
experimental_endpoint = "EC50"
value_observed = 500

